assay_protocol: Absorption study in rats, oral, serum concentration (Example 20)
Assay type: in vivo
assay_setup: rat, serum, oral, 1000 mg per kg, after 24 hours; detection limit of the assay
parameter_measured: concentration at 24 h

concentration at 24 h recorded for this compound, C=CC(C)(C)c1cc(/C=C/C(=O)c2ccc(O)cc2)c(OC)cc1O , is < 50 ng/mL

----------
Test system: L. major promastigotes
assay_protocol: L. major promastigotes from 4-days cultures, 3H-thymidine uptake (Examples 5, 14)
Assay type: cell-based, Leishmania major
assay_setup: Leishmania major, read-out: percentage inhibition of 3H-thymidine uptake (mean ± SEM); Table 5.1; 0.5 μg/ml
Below, each of the compounds is paired with its reported inhibition at 0.5 µg/mL value.
Answer format: numeric, % implied, no suffix.

Example cases with answers are listed next.
# compound, experimental_result
rows = [
    ("C=CCOc1ccc(C(=O)/C=C/c2ccc(OC)cc2OC)cc1 [drawing 56]", 7.5),
    ("COCOc1ccc(C(=O)/C=C/c2ccc(OC)cc2OC)cc1 [drawing 58]", 8.5),
    ("COc1cc(/C=C/C(=O)c2ccc(O)cc2O)ccc1O [drawing 59]", 7.8),
]

inhibition at 0.5 µg/mL recorded for this compound, COCCOCOc1ccc(C(=O)/C=C/c2ccc(OC)cc2OC)cc1 , is 20

inhibition at 0.5 µg/mL recorded for this compound, COc1ccc(/C=C/C(=O)c2ccc(O)cc2)c(OC)c1 [drawing 55] , is 19.4

All figures here come from patent US6603046B1.
